This collection of values is drawn from patent US5888763A.

target: gst-c-CrkSH3(1) (Example 2) (murine, UniProt Q64010); experiment: tryptophan fluorescence titration
observable: pKd
One number for each entry, as −log10 of the molar value.

binder: PPPPLPPKKR [C3Gmut(1) peptide (PPPPLPPKKR)]
pKd: 5.84

# ---- query binder ----
For the binder PPAIPPRQPT [SOS-2 peptide (PPAIPPRQPT)] , report pKd.
3.90
